Recorded viability at 28.5 h, 10 µM by entry
assay: in vitro; settings: human, hela cells, % viability
measure name: viability at 28.5 h, 10 µM

CCN(CC)CCn1c(OC)cc(=O)[nH]c1=O [CBK264411]
97.5%
O=C1C=C(c2ccc([N+](=O)[O-])cc2)Nc2nonc2N1 [CBK261487]
89.4%
CS(=O)(=O)c1ccc(-c2cnc(N)c(NCC3CCOCC3)n2)cc1 [CBK063849]
103%
COc1cccc(CN(Cc2ccco2)Cc2cncn2C)c1 [CBK282497]
102%
O=C(CCn1c(=O)oc2ccccc21)N1CC=C(c2ccc(F)cc2)CC1 [CBK295602]
95.8%

###

# viability at 28.5 h, 10 µM per entry
experiment: in vitro; settings: human, hela cells, % viability
measure name: viability at 28.5 h, 10 µM

CCN1/C(=C/C(=C/c2sc3ccccc3[n+]2CCCS(=O)(=O)[O-])OC)Sc2ccccc21 [CBK278203]
99.7%
Cc1nc2ccc(C(=O)NC(C)c3ccccn3)cc2s1 (centres unmarked) [CBK281890]
94.6%
O=C1NC2(CCN(C(=O)c3ccco3)CC2)Nc2ccccc21 [CBK284762]
104%
CCC1CN(c2cc(CO)c(F)cn2)CC2(CCOC2)O1 (centres unmarked) [CBK304757]
92.9%
Cc1cc(C)n(CCN2CCC(N(C)Cc3nnc(C)n3C)C2)n1 (centres unmarked) [CBK304449]
94.3%

###

Entries and their viability at 28.5 h, 10 µM
assay: in vitro; details: human, hela cells, % viability
measure name: viability at 28.5 h, 10 µM (%)

CC1CC1C(=O)NCCc1c[nH]c2cccc(C3(O)CCOCC3)c12 (stereo not drawn)
95.7
CN(C)C(=O)c1sc2ccccc2c1Cl
82.4
Cn1ncc2c(=O)n(Cc3noc(-c4ccco4)n3)cnc21
97.1
COc1cc(-c2nccnc2N(C)Cc2ccccc2)cc(OC)c1OC
96.5
CCOc1ccc2cc(C3CC(c4ccccc4)=NN3C(=O)CCC(=O)O)c(Cl)nc2c1 (stereo not drawn)
114
CN(C)c1ccc(/C=N/NC(=O)CSc2nnc(-c3ccccc3)n2-c2ccccc2)cc1
90.2
Cn1ncc2c1CCCN(C(=O)COc1cccc(F)c1)C2
96.9
COc1ccc(C(NC(=O)c2ccc(Cn3nc(C)cc3C)o2)c2ccccc2)cc1 (stereo not drawn)
87.8
C(=C\c1cccc(Nc2ccc(Oc3ccccc3)cc2)n1)/c1ccccc1
94.1

###

assay: in vitro; settings: human, hela cells, % viability
Reported viability at 28.5 h, 10 µM is given for each of the following molecules.
measure name: viability at 28.5 h, 10 µM (%)

O=C(Oc1ccc(N(C(=O)c2ccncc2)S(=O)(=O)c2cccs2)cc1)c1ccncc1
98.7
Cc1c(C#N)c(=O)ncn1Cc1ccncc1
102
O=C(CSCc1ccccc1)Nc1ccc(O)cc1C(=O)O
103
CN(c1cc(F)ccc1[N+](=O)[O-])S(=O)(=O)c1ccccc1
97.5
COC(=O)[C@H]1CN(C(=O)c2ccncc2)C[C@@H]1c1ccc(F)cc1
94.2
O=C(NCCc1cccs1)Nc1cc(F)ccc1F
113
O=C(O)C(=C/C=C/Br)C(=O)O
92.6
Nc1nc(C2CC(N)C2)cc(N2CCC(Oc3ccccc3Cl)CC2)n1 (stereo not shown)
88.6
COc1ccc(NC(=O)Cn2cnc3c2c(=O)n(C)c(=O)n3C)cc1Cl
95.9
CCNC(=S)N[C@H]1CC[C@@]2(Cc3ccccc3Cl)CCN(C)[C@H]2C1
92

###

assay: in vitro; conditions: human, hela cells, % viability
measure name: viability at 28.5 h, 10 µM

COc1ccc(C(=O)Nc2cccnc2N2CCNCC2)cc1 [CBK029421T]
102%
N#Cc1c(NC(=O)CSc2nc3ccccc3s2)oc(-c2ccccc2)c1-c1ccccc1 [CBK269019]
97%
CC(C)Cn1cncc1CNS(=O)(=O)c1cccc(C(=O)N2CCC2)c1 [CBK307068]
90.3%
Cc1csc2ncc(C(=O)Nc3ccc(Cl)c(Cl)c3)c(=O)n12 [CBK287459]
104%
O=C(CSCc1c(F)cccc1Cl)NCc1ccccc1Cl [CBK269155]
91.6%
COc1cc(CNCCc2c[nH]c3ccccc23)cc(Cl)c1OC [CBK269861C]
88.5%
O=S(=O)(Nc1cc(NCCCN2CCOCC2)c2occc2c1)c1ccccc1C(F)(F)F [CBK067838C]
94.9%
CCN(CC)C(=O)Cn1ncc2c3sc(C)cc3n(CC)c2c1=O [CBK284167]
99.3%
Cc1c(C(=O)N2CC(n3cc(C(C)(C)O)nn3)C2)sc2cccc(F)c12 [CBK306398]
91.4%
CCOC(=O)c1cnc2ccc(Cl)cc2c1N1CCOCC1 [CBK307627]
99.2%
CC(Oc1ccccc1)C(=O)Nc1nn(Cc2ccc(S(=O)(=O)N3CCCC3)cc2)c2ccccc12 (centres unmarked) [CBK061595]
102%
Cc1ccc(C2=N/C(=C/c3ccc(OS(=O)(=O)c4ccc(C)c([N+](=O)[O-])c4)cc3)C(=O)O2)cc1 [CBK264647]
99.1%
COc1ccc(NC(=O)C2CCCN2S(=O)(=O)c2ccc(OC)cc2)cc1 (centres unmarked) [CBK070001]
78.1%
Cc1nc2ccccn2c1-c1csc(Nc2cccc(C(=O)O)c2)n1 [CBK263303B]
92.7%
O=C1CC(c2cc(Br)ccc2F)c2scc(-c3ccccc3F)c2N1 (centres unmarked) [CBK294440]
86.4%
O=C(Cn1c(NCCO)nc2ccccc21)c1ccco1 [CBK264127B]
96.3%
O=C(OCCC1SC(NC2CC3C=CC2C3)=NC1=O)c1c(F)cccc1Cl (centres unmarked) [CBK200061T]
88.7%
OCC1CCCN1c1cncc(-c2cccc3ccccc23)n1 (centres unmarked) [CBK065509]
91.1%
CC1CCN(C(=O)C2CCCCC2C(=O)O)CC1 (centres unmarked) [CBK028392]
107%
CC(C)(C)c1cc(CN2CCN(c3ccccn3)CC2)cc(C(C)(C)C)c1O [CBK261520]
117%
c1coc(-c2cn3ccnc3c(NCCc3ccncc3)n2)c1 [CBK037333]
93.5%
COc1ccc(C(=O)C2=C(O)C(=O)N(CCN3CCNCC3)C2c2ccccc2F)cc1 (centres unmarked) [CBK264666]
99.4%
COc1ccc(CCC(=O)N2CCCc3c(cnn3C)C2)cc1 [CBK285326]
111%
N/C(Cc1ccc([N+](=O)[O-])cc1)=N\OC(=O)COc1cccc2ccccc12 [CBK262994]
92.8%
Cn1cc(N2CCCC(NC(=O)Nc3cccc(C#N)c3)C2)cn1 (centres unmarked) [CBK305179]
91.3%
Cc1ccc(C2=CCN(CC(N)=O)CC2)o1 [CBK283570]
98.3%
Cc1[nH]c(=O)[nH]c(=O)c1CC(=O)N1CCc2ncc(Cl)cc2C1 [CBK286302]
101%
O=C1CNC(=O)C2(C/C=C/C[C@H]3COCC[C@@H]3N1)CCN(Cc1ccc(Cl)cn1)CC2 [CBK292132]
91%
O=C(COc1ccccc1)N1CCN(Cc2ccncc2)CC1 [CBK072595]
94.6%
COC(=O)c1c(NC(=O)CC2NCCNC2=O)sc(C)c1C (centres unmarked) [CBK269447]
92.1%
O=C(CSc1nc[nH]n1)Nc1ccccc1[N+](=O)[O-] [CBK265005]
100%
CC(/C(=N/O)c1ccccc1)C(O)c1ccccn1 (centres unmarked) [CBK022993]
83.3%
O=C(O)CC(Cc1ccccc1)(C(=O)O)c1ccccc1 (centres unmarked) [CBK287133]
77.8%
O=S(=O)(NC1CCN(Cc2ccccc2)CC1)c1cccc2nonc12 [CBK062030]
94.6%
CC(C)(C)C(=O)Nc1ccc(C(=O)Nc2cccc(C(=O)O)c2)cc1 [CBK261329]
94.8%
Cc1c(C(=O)N2CC(n3cc(C(C)O)nn3)C2)sc2ccc(F)cc12 (centres unmarked) [CBK305446]
94.5%
Cc1ncsc1CCC(=O)NCC1CCN(c2ccccc2F)C1 (centres unmarked) [CBK304675]
96.5%
Cc1ccc(OCc2occc2C(=O)N2CCCCC(N)C2)cc1 (centres unmarked) [CBK306840]
107%

###

assay: in vitro; conditions: human, hela cells, % viability
measure name: viability at 28.5 h, 10 µM (%)

O=C(CN1CCN(CCN2C(=O)c3cccc4cccc(c34)C2=O)CC1)c1ccc(Cl)cc1
78.1
COCCNC(=O)c1ccc(-c2ccc3c(c2)OCO3)nc1N(C)C
101
Cc1cc(NC(=O)CN(C)c2ncccc2C#N)no1
77.7
CCc1c(C)nc2c(C(=O)NCCCN3CCCC3=O)cnn2c1C
96.2
COc1cccc(N2C(=O)N[C@@H]3CCN(S(=O)(=O)c4ccccc4)[C@@H]3C2=O)c1
111
Cc1ccn(CCNCc2cc(-c3ccc(Cl)cc3)c[nH]c2=O)n1
88.4
COc1cc(C)nc(OCCNS(=O)(=O)c2cc(C)ccc2C)n1
91.9
NS(=O)(=O)c1ccc(C(=O)Nc2cccc3cc[nH]c23)cc1
94.8
O=C(Cn1ccc(=O)[nH]c1=O)NCc1cccnc1OCC(F)(F)F
90.5

Numbers sourced from paper PMC12040169.
